assay: Human HepG2 cell viability assay in 384 well format; type: toxicity, cell-based; design: dose 125 nL, time 70.5 hour; concentration not given beside the values; settings: HepG2 cells, read-out: Inhibition
Quick list: cytotoxicity at 70.5 h per entry.
endpoint label: cytotoxicity at 70.5 h (%)

>>> print(df.to_string())
                                   compound  unit_symbol  numeric_readout
0         COCCN1CCCC12CCN(C(=O)CC1CCCC1)CC2            %             3.49
1  c1nc(N2CCCC(Cn3cncn3)C2)c2sccc2n1 (stereo unspecified)            %             -2.8
2  CC(C)n1ccc2c(NC(=O)c3n[nH]c4c3CCC4)cccc21            %             7.25
3  O=C(Cc1ccsc1)N1C[C@@H]2COC[C@]2(COc2cccnc2)C1            %             -6.1
4  CC(=O)N1CCC2(CC1)C(=O)N(CC1CCN(C)CC1)c1ccccc12            %             -8.7
5  COCC1CC2(CCN(CC3CC3)CC2)CN1c1ncccn1 (stereo unspecified)            %            -3.59

* * *

assay: Human HepG2 cell viability assay in 384 well format; assay type: toxicity, cell-based; design: dose 125 nL, time 70.5 hour; concentration not given beside the values; details: HepG2 cells, read-out: Inhibition
endpoint label: cytotoxicity at 70.5 h (%)

>>> df
                                    molecule  unit_symbol  numeric_readout
 0   CC[C@H]1N(C)CCC[C@]12CCC(=O)N2Cc1ccncc1            %             10.9
 1            COCCS(=O)(=O)Cc1nnnn1-c1ccccc1            %            -2.53
 2  O=C1N[C@@H]2CCN(C(=O)N3CCOCC3)[C@@H]2C(=O)N1Cc1ccccc1            %            -4.61
 3  CC(=O)N1CCN(C(=O)c2csc(-c3ccc(C)cc3C)n2)CC1            %             14.1
 4   Fc1cc(F)cc(CN2CCC(c3cc4ncccc4cn3)CC2)c1            %             1.34
 5  CC(C)COC(C)C(=O)NCc1ccc(OC(C)C)nc1 (configuration not stated)            %            -3.57
 6  CSCc1cccc(NC(=O)N2CCC(N3CC=CC3)C2)c1 (configuration not stated)            %               35
 7  C/C=C(\C)CN1C[C@@H](NC(=O)c2ccc(O)c(Cl)c2)C[C@H]1C(=O)NCC            %              -11
 8  COc1cccc(-c2noc(C3CCN(Cc4cccs4)C3)n2)c1 (configuration not stated)            %             8.44
 9  COC(CNC(=O)c1ccc[nH]1)c1cccc(Cl)c1 (configuration not stated)            %             10.5
10  COC1COC2(CCN(Cc3ccc(Cl)cc3)CC2)C1 (configuration not stated)            %             6.16
11  CN(C)c1nc2c(c(N(C)Cc3n[nH]c4c3CCCCC4)n1)CCNC2            %            -9.48
12  c1cncc(C2COC3(CCN(CC4CC4)CC3)C2)c1 (configuration not stated)            %           -0.218
13  CCN1CCCC(O)(CNCc2ccccn2)C1 (configuration not stated)            %            -8.08
14  COCCCNC(=O)c1cc(-c2cnc(N(C)C)nc2)cn1CC1CC1            %            -6.95
15         CCCOCCN1CCc2[nH]c(-c3ccccc3)nc2C1            %             11.7
16  C=Cn1ncc(CN2CCc3nc(-c4ccncc4)nc(O)c3C2)c1C            %            -4.39
17            CCS(=O)(=O)c1ccccc1N1CCC(N)CC1            %             -3.9
18  Cc1noc(C)c1C(=O)N1CCCC(c2cc(C(F)(F)F)[nH]n2)C1 (configuration not stated)            %               11
19       CCOCC(=O)Nc1cc(-c2cccc(F)c2F)n[nH]1            %            -7.88
20  Cc1cc(C)nc(N2CCN(C(=O)c3cc(Cl)c[nH]3)CC2)n1            %             -9.1
21    O=C1CSCN1Cc1nc(-c2ccc(N3CCCCC3)cc2)no1            %            -5.66
22  CCN1CC(COC(=O)c2cc(C)nn2CC)CC1=O (configuration not stated)            %            -7.36
23      COc1nc2c(cc1C(=O)NCc1nc(CSC)no1)CCC2            %            -5.89
24         O=C(CCc1nccs1)N1CCN(c2ccccc2F)CC1            %             34.9
25       N#Cc1ccc(CNC2CCN(CCc3ccncc3)CC2)cc1            %            -1.86
26  CCOC(C(=O)N1CCn2c(C)nnc2C1)c1ccccc1 (configuration not stated)            %            -11.7
27        CNCC(=O)Nc1cccc(-c2cnc(NCCO)nc2)c1            %            -1.04
28  O=C1[C@H]2CN(C(=O)[C@H]3CCCO3)C[C@H]2CN1CC1CC1            %            -5.67
29  c1ccc(N2CCC(NCc3cccc4cn[nH]c34)C2)cc1 (configuration not stated)            %              7.7
30        CCc1nnc2n1CCN(Cc1csc(NC(C)=O)n1)C2            %            -3.38
31  Cc1ccc(CN(C)C(=O)NCC(C)(C)CCS(C)(=O)=O)s1            %            -1.02
32  Cc1ccccc1-n1cc(-c2ccnc(NC(CO)C(C)C)n2)cn1 (configuration not stated)            %            -7.36
33  CCCNC(=O)N1CCCC2(CCC(=O)N(CCc3c[nH]cn3)C2)C1 (configuration not stated)            %             -1.2
34  Cn1cc(CNCC2Cn3nnc(-c4ccccc4)c3CO2)cn1 (configuration not stated)            %            -16.3
35  CCc1nc(C2CCCN(C(=O)c3cccc4c3ccn4C)C2)no1 (configuration not stated)            %            -4.32
36  Cc1ccccc1CN1CCCN(S(=O)(=O)N(C)C2CCCCC2)CC1            %            -7.92
37  O=S(=O)(NCC1CCCN(Cc2ccccc2F)C1)C1CC1 (configuration not stated)            %            -5.21
38  CN1CC(=O)N(c2cccc(F)c2)CC12CCN(Cc1cccnc1)C2 (configuration not stated)            %             3.06
39    Cc1ncc2c(n1)C1(CCN(C(=O)C3CC3)CC1)OCC2            %            -9.75
40     Cc1nnc2n1CCN(Cc1csc(-c3cnn(C)c3)n1)C2            %            -3.97
41  N[C@H]1CC[C@@H](n2cc(C(=O)NC3COc4ccccc43)nn2)CC1 (some centres not stated)            %           -0.524
42  CC(C)N1CCCC2(CCN(Cc3nncn3C(C)C)C2)C1=O (configuration not stated)            %           -0.727
43  Cc1ccc(CNC(=O)N2CCCC(NS(C)(=O)=O)C2)cc1 (configuration not stated)            %             2.89
44  O=C([C@H]1CN(Cc2nccs2)C[C@H]2OCC[C@@H]12)N1CCCCO1            %            -10.9
45  CN(C)C(=O)CO[C@@H]1CC[C@H]2[C@H]1OCCN2C(=O)C1CCOCC1            %            -3.79
46     CN(CC(N)=O)C(=O)c1cnc(-c2ccc(Cl)s2)s1            %            -4.25
